# System: Saccharomyces cerevisiae
# assayComment: protein stability index of tFT-peptide fusion (C-terminal peptide) (PSI (0-1 scale)); higher = more stable (slower turnover)
# cond: genetic background: wild type; temperature: 30 C
reportedEndpoint: protein stability index
The answer should be a number; do not append a unit.

| constructSequence | protein stability index |
| --- | --- |
| LPTSPQLPHAPS | 0.719 |

Given item SPGNLPMSSSLL , the value recorded as its protein stability index is 0.686

Given item GKNKKSKTLIKQ , the value recorded as its protein stability index is 0.669

Given item SLVSWAGLLFWG , the value recorded as its protein stability index is 0.727

Given item PARFPPLPFPPI , the value recorded as its protein stability index is 0.74

====

# Tested on: Saccharomyces cerevisiae
# assayComment: protein stability index of tFT-peptide fusion (C-terminal peptide) (PSI (0-1 scale)); higher = more stable (slower turnover)
# cond: genetic background: doa10 deletion; temperature: 30 C
reportedEndpoint: protein stability index
The answer should be a number; do not append a unit.

Given item WLSISNLVIACR , the value recorded as its protein stability index is 0.0862

Given item RVLILCLFFRWS , the value recorded as its protein stability index is 0.257

Given item GMLIYVIGGLSH , the value recorded as its protein stability index is 0.438

Given item LCFLVALASMLF , the value recorded as its protein stability index is 0.439

Given item FCCFFPFLWRVF , the value recorded as its protein stability index is 0.317

Given item LFHPPSFSLRLF , the value recorded as its protein stability index is 0.301

Given item MSHVCICRRLML , the value recorded as its protein stability index is 0.404

Given item LVCLVASCVRWL , the value recorded as its protein stability index is 0.237

Given item VCFLCIWLYSED , the value recorded as its protein stability index is 0.218

Given item VLPLRCSWAAQG , the value recorded as its protein stability index is 0.246

Given item LVSWAWIWIFVF , the value recorded as its protein stability index is 0.171

Given item QGILVGCCYVLC , the value recorded as its protein stability index is 0.273

Given item LLLLGVSLFLVR , the value recorded as its protein stability index is 0.223

====

protein stability index reference
# Test system: Saccharomyces cerevisiae
# assayComment: protein stability index of tFT-peptide fusion in wild type (PSI (0-1 scale)); higher = more stable (slower turnover)
# cond: genetic background: wild type
The answer should be a number; do not append a unit.

Guide cases for protein stability index, answers given:
| constructSequence | protein stability index |
| --- | --- |
| GFYMCSVGCWFR | 0.204 |
| ARWRVGLWRSAS | 0.102 |
| CTSCGNKFRTNN | 0.52 |
| CLVSLPILLFFRL | 0.0549 |
| AITLPMCPLLLRT | 0.169 |
| LKIRRQKMNHQN | 0.246 |
| GLYMCSVGLWFR | 0.184 |
| RSMRVLLPLYFR | 0.257 |
| AITLCMCPLLLR | 0.487 |
| AITLPMCTLLLR | 0.116 |

Given item GLYMCSVGCKFR , the value recorded as its protein stability index is 0.619

Given item HRGAVGGWRLVG , the value recorded as its protein stability index is 0.172

Given item RLIQPLPVMFLN , the value recorded as its protein stability index is 0.0639

Given item KKHKKPQKQKIN , the value recorded as its protein stability index is 0.0387

====

# Test system: Saccharomyces cerevisiae
# assayComment: protein stability index of tFT-peptide fusion (C-terminal peptide) (PSI (0-1 scale)); higher = more stable (slower turnover)
# cond: genetic background: wild type; temperature: 30 C
protein stability index reference
The answer should be a number; do not append a unit.

Guide cases for protein stability index, answers given:
| constructSequence | targetEntity | protein stability index |
| --- | --- | --- |
| RLTLKKMIKQNV | Saccharomyces cerevisiae | 0.56 |
| EAAVTESVTGKR | Saccharomyces cerevisiae | 0.679 |
| GLPPPAPRRPDL | Saccharomyces cerevisiae | 0.664 |

Given item LLAFRVSRYFCD , the value recorded as its protein stability index is 0.87

Given item PGLSLPLPPPRP , the value recorded as its protein stability index is 0.703

Given item FGSSLVVSMVFD , the value recorded as its protein stability index is 0.704

Given item VGVYVWRGVLWA , the value recorded as its protein stability index is 0.296

Given item EKNDKEYKRSIS , the value recorded as its protein stability index is 0.665

====

# Tested on: Saccharomyces cerevisiae
# assayComment: protein stability index of tFT-peptide fusion (C-terminal peptide) (PSI (0-1 scale)); higher = more stable (slower turnover)
# cond: genetic background: das1 deletion; temperature: 30 C
protein stability index reference
The answer should be a number; do not append a unit.

Given item SGIKEFFDNYKS [ARO9 C-terminal 12 aa] , the value recorded as its protein stability index is 0.712

Given item VYGSERDIRAKF [TES1 C-terminal 12 aa] , the value recorded as its protein stability index is 0.808

Given item CIAKKVKTYWNK [YIL024C C-terminal 12 aa] , the value recorded as its protein stability index is 0.682

Given item NKIANFVKNAKK [TRP1 C-terminal 12 aa] , the value recorded as its protein stability index is 0.708

Given item LRTTSSMEKKLN [ALG3 C-terminal 12 aa] , the value recorded as its protein stability index is 0.706

Given item DLYTEEFLKEGK [PRP39 C-terminal 12 aa] , the value recorded as its protein stability index is 0.683

Given item KTPNTKRRKTHK [HAS1 C-terminal 12 aa] , the value recorded as its protein stability index is 0.745

Given item MLCTLTGYQNND [NUP192 C-terminal 12 aa] , the value recorded as its protein stability index is 0.728

====

protein stability index reference
# System: Saccharomyces cerevisiae
# assayComment: protein stability index of tFT-peptide fusion (C-terminal peptide) (PSI (0-1 scale)); higher = more stable (slower turnover)
# cond: genetic background: wild type; temperature: 30 C
The answer should be a number; do not append a unit.

Guide cases for protein stability index, answers given:
| constructSequence | reportedEndpoint | measValue |
| --- | --- | --- |
| EREVNPSARSLG [YLR184W C-terminal 12 aa] | protein stability index | 0.684 |
| DDNDDGDDDDDW [MYO3 C-terminal 12 aa] | protein stability index | 0.709 |
| PQMARKQRGHIG [SDS23 C-terminal 12 aa] | protein stability index | 0.681 |

Given item KSEVERVYKENS [FAA3 C-terminal 12 aa] , the value recorded as its protein stability index is 0.68

Given item ALHSEEASFHSL [AIM21 C-terminal 12 aa] , the value recorded as its protein stability index is 0.7

====

# Test system: Saccharomyces cerevisiae
# assayComment: protein stability index of tFT-peptide fusion (C-terminal peptide) (PSI (0-1 scale)); higher = more stable (slower turnover)
# cond: genetic background: wild type; temperature: 30 C
protein stability index reference

| constructSequence | reportedEndpoint | measValue |
| --- | --- | --- |
| QCAIRQCCLVSL | protein stability index | 0.574 |
| LSLLKPLALCES | protein stability index | 0.559 |
| RVFGSFLSGEQF | protein stability index | 0.7 |
| CGAGIYTRCTGR | protein stability index | 0.661 |
| CGLSYSAVDLGV | protein stability index | 0.684 |

// assay Saccharomyces cerevisiae, entry TQSSADCFTLDA , protein stability index value = 0.719

// assay Saccharomyces cerevisiae, entry VPHLPATPPAPP , protein stability index value = 0.646

====

# Test system: Saccharomyces cerevisiae
# assayComment: protein stability index of tFT-peptide fusion (C-terminal peptide) (PSI (0-1 scale)); higher = more stable (slower turnover)
# cond: genetic background: doa10 deletion; temperature: 30 C
protein stability index reference
The answer should be a number; do not append a unit.

Guide cases for protein stability index, answers given:
| constructSequence | targetEntity | protein stability index |
| --- | --- | --- |
| ICFPLQIFRILV | Saccharomyces cerevisiae | 0.211 |
| MALAVRVVTCGA | Saccharomyces cerevisiae | 0.191 |
| YVLWFVCGVGFV | Saccharomyces cerevisiae | 0.262 |
| CLVSLPILLFFR | Saccharomyces cerevisiae | 0.545 |
| EGALSGGGKTSG | Saccharomyces cerevisiae | 0.636 |

// assay Saccharomyces cerevisiae, entry LAPSRNRSVWLV , protein stability index value = 0.104

// assay Saccharomyces cerevisiae, entry LLMLWWARVFSG , protein stability index value = 0.209

// assay Saccharomyces cerevisiae, entry ILFIVSSCGCVG , protein stability index value = 0.443

// assay Saccharomyces cerevisiae, entry SGPNASRFYAPI , protein stability index value = 0.657

====

# Test system: Saccharomyces cerevisiae
# assayComment: protein stability index of tFT-peptide fusion in wild type (PSI (0-1 scale)); higher = more stable (slower turnover)
# cond: genetic background: wild type
Classes by protein stability index: range 1: < 0.07; range 2: ≥ 0.07 and < 0.3; range 3: ≥ 0.3

Example entries begin here.
| constructSequence | targetEntity | assignedClass |
| --- | --- | --- |
| KKHHKGQKQKIN | Saccharomyces cerevisiae | range 1 |
| CLVSLPILLFFRF | Saccharomyces cerevisiae | range 1 |

Query string: Please indicate the class for CTSCGYKFRTHN based on its protein stability index.
Result string: range 3

Query string: Please indicate the class for PDKANHLIKLLN based on its protein stability index.
Result string: range 2

Query string: Please indicate the class for AITLPMCPLLLR based on its protein stability index.
Result string: range 2

Query string: Please indicate the class for RLIQPLPVQWLN based on its protein stability index.
Result string: range 1

Query string: Please indicate the class for FSMRWTFRYWWN based on its protein stability index.
Result string: range 2

Query string: Please indicate the class for KKHKKGQGQKIN based on its protein stability index.
Result string: range 3

Query string: Please indicate the class for AKWRVGLWRGAS based on its protein stability index.
Result string: range 3

Query string: Please indicate the class for LVVYLSCVAVIN based on its protein stability index.
Result string: range 1

Query string: Please indicate the class for PSLAASFWRVYG based on its protein stability index.
Result string: range 2
